FYI, the data here is from PubChem BioAssay (NCI).

Tested on: HCT-116 colon
Experiment: NCI-60 one-dose screen, 48 h (100 = growth as untreated, 0 = no growth, -100 = all killed)
Details: 10 µM unless noted
Procedure: Growth inhibition of the HCT-116 human tumor cell line is measured as a screen for anti-cancer activity. Cells are grown in 96 well plates and exposed to the test compound for 48 hours. Compounds are tested at a single concentration, which is 10^-5 M for most compounds. The reported endpoint is percent growth (GI% or GIPRCNT), where numbers from 0 - 100% represent growth inhibition, and numbers from -100% - 0 represent cell death. For example, a value of 40 represents 60% growth inhibition. […]
This is part of a sample that, as a whole, favours compounds with a hit. Of some 83,000 tested, about 20% had one in any assay.
Listed here: items and their measured growth.
Reported Property: growth (%)

compound=CC(=O)c1ccc2c(N)c(C(=O)Nc3ccc(C(F)(F)F)cc3)sc2n1 target_or_test_system="HCT-116 colon" value_units=% value=31
compound=CN(C)C(=O)c1cc(-c2ccc3ncnc(N4CCc5cc(F)c(Cl)cc54)c3c2)cnc1N target_or_test_system="HCT-116 colon" value_units=% value=-97.4
compound=O=c1c(-c2nc(-c3ccccc3)c(-c3ccccc3)[nH]2)coc2ccc(F)cc12 target_or_test_system="HCT-116 colon" value_units=% value=39.4
compound=Cc1ccc(C(=O)Nc2cc(-n3ccnc3C)cc(C(F)(F)F)c2)cc1C#Cc1cnc2cccnn12 target_or_test_system="HCT-116 colon" value_units=% value=-41.3
compound="Fc1cccc(CNc2nc(SCCN3CCOCC3)nc3c2cnn3CC(Cl)c2ccc(Br)cc2)c1 (configuration not stated)" target_or_test_system="HCT-116 colon" value_units=% value=18.4
compound=Cc1ccc(/C=C/C(=O)c2ccc(S(=O)(=O)NCCNc3nc(N(C)C)nc(N4CCOCC4)n3)cc2)cc1 target_or_test_system="HCT-116 colon" value_units=% value=-21.6
compound=Cc1nn(-c2ccccc2)c2nc(C)n(CC(=O)N/N=C/c3cccc([N+](=O)[O-])c3)c(=O)c12 target_or_test_system="HCT-116 colon" value_units=% value=87.6
compound=C[C@@H]1[C@H]2C[C@@H](C[C@H]1NCc1nc3ccccc3n1C1CCCCCC1)C2(C)C target_or_test_system="HCT-116 colon" value_units=% value=23.4
compound=Cc1ccc(Nc2nnc(-c3c[nH]c4ccccc34)o2)c(C)c1 target_or_test_system="HCT-116 colon" value_units=% value=1.32
compound=O=C(NNC(=S)NCCc1ccccc1)c1ccc(OCc2nc3ccc(Cl)cc3[nH]2)cc1 target_or_test_system="HCT-116 colon" value_units=% value=64.3
compound=O=C1N/C(=N\c2nccs2)S/C1=C\c1ccc([N+](=O)[O-])cc1 target_or_test_system="HCT-116 colon" value_units=% value=-1.76
compound=COc1ccc(C(=O)c2c(N)c(C#N)cn2-c2ccc([N+](=O)[O-])cc2)cc1 target_or_test_system="HCT-116 colon" value_units=% value=106
compound=CN(C)CCCc1ccc(Nc2cnn(C)c(=O)c2Cl)cc1 target_or_test_system="HCT-116 colon" value_units=% value=95.5
compound=Nc1cc(-c2c[nH]c3ccc(Cl)cc23)nc2cc(-c3c[nH]c4ccccc34)nn12 target_or_test_system="HCT-116 colon" value_units=% value=-83.9
compound=CC[C@]12C=CCN3CC[C@@]4(c5ccc(OC)cc5N(C)[C@H]4[C@@](O)(C(=O)OC)[C@@H]1OC(=O)CCCC[P+](c1ccc(F)cc1)(c1ccc(F)cc1)c1ccc(F)cc1)[C@@H]32 target_or_test_system="HCT-116 colon" value_units=% value=23.4
compound="COc1cc(C2CC(c3ccc(Cl)cc3)=Nc3c(N)nc(N)nc3N2)ccc1Oc1nc(Nc2ccc(F)cc2)nc(N(C)C)n1 (configuration not stated)" target_or_test_system="HCT-116 colon" value_units=% value=-5.37
compound=Nc1nnc(-c2cncc(Br)c2)c(-c2c[nH]c3ccc(Br)cc23)n1 target_or_test_system="HCT-116 colon" value_units=% value=22.9
compound=CC1=C(C)C(=O)C(NCCN2CCOCC2)=C(Br)C1=O target_or_test_system="HCT-116 colon" value_units=% value=-75.5
compound="N#CC1=C(c2cccs2)Nc2c(c(-c3ccccc3)nn2-c2ccccc2)C12C(=O)Nc1ccc(Br)cc12 (configuration not stated)" target_or_test_system="HCT-116 colon" value_units=% value=-52.8
compound=O=C(CSc1nc2sc3c(c2c(=O)n1-c1ccc(Cl)cc1)CCCC3)NNC(=O)c1ccc(Br)cc1 target_or_test_system="HCT-116 colon" value_units=% value=64
compound=CCOc1ccccc1NC(=O)N/C(N)=N/c1nc2ccccc2s1 target_or_test_system="HCT-116 colon" value_units=% value=-5.6
compound=CCc1ccccc1-c1nc(CN[C@@H]2C[C@@H]3C[C@H]([C@H]2C)C3(C)C)c(C)o1 target_or_test_system="HCT-116 colon" value_units=% value=-82.4
compound=Cc1cc(Cl)ccc1NC(=O)Nc1ccc(-c2ccc3c(c2)NC(=O)/C3=C\c2ccc[nH]2)cc1 target_or_test_system="HCT-116 colon" value_units=% value=108
compound=O=CNc1cccc(-n2cnc3cc(-c4ccc(O)cc4)ccc32)c1 target_or_test_system="HCT-116 colon" value_units=% value=14.1
compound=CNc1nc2ccccc2n2c(-c3ccc(O)c(O)c3)cnc12 target_or_test_system="HCT-116 colon" value_units=% value=2.74
compound=CCCCCCCCCc1ccc(C(=O)Nc2cc(C)ccc2C(=O)OC)cc1 target_or_test_system="HCT-116 colon" value_units=% value=96.7
compound=Cc1ccc(C(=O)C[n+]2cccc3c4ccccc4ccc32)cc1 target_or_test_system="HCT-116 colon" value_units=% value=11.8

* * *

Tested on: MOLT-4 leukemia
Assay: NCI-60 one-dose screen, 48 h (100 = growth as untreated, 0 = no growth, -100 = all killed)
Conditions: 10 µM unless noted
This is part of a sample that, as a whole, favours compounds with a hit. Of some 83,000 tested, about 20% had one in any assay.
Reported Property: growth (%)

molecule=CC(C)(C)OC(=O)N1CCC2(CC1)Oc1ccccc1[C@H]1CC(c3ccc(Br)cc3)=NN12 value=47
molecule=CN(C)c1nc(NCCNS(=O)(=O)c2ccc(C(=O)/C=C/c3ccccc3)cc2)nc(N2CCOCC2)n1 value=13.9
molecule=Clc1ccccc1Nc1nnc(-c2c[nH]c3ccccc23)o1 value=5.42
molecule=COC(=O)c1cc(C(=O)C(C)(C)C)n2c3ccccc3c3ccccc3c12 value=67.1
molecule=COc1cc(/C=C/C(=O)c2cnn(-c3cc(=O)[nH]c4ccccc34)c2C)cc(OC)c1OC value=-12.8
molecule=N#Cc1c(NC(=O)N2CCOCC2)n(-c2ccc(OC(F)(F)F)cc2)c2cc(F)ccc12 value=68.7
molecule=COc1ccc2c(c1)c(-c1cc(N)n3nc(-c4c[nH]c5ccccc45)cc3n1)cn2C value=-1.51
molecule=FC(F)(F)c1cc2c(Cl)ncnc2n1CCN1CCCCC1 value=-14.3
molecule=O=C(Cn1c(-c2ccccc2)nc2ccccc21)N=Nc1c(O)[nH]c2ccc(Br)cc12 value=20.8
molecule=COc1cc2cc(C(=O)N3C[C@@H](CCl)c4c3cc(OC(=O)N(CCC(=O)N3CCN(C)CC3)C3CCCCC3)c3ccccc43)[nH]c2c(OC)c1OC value=-19.8
molecule="CC1=NN(C2=NC(=O)C(CC(=O)Nc3ccccc3C(F)(F)F)S2)C(c2ccc(N(C)C)cc2)C1 (centres undefined)" value=28.4
molecule=NCCCCn1c(SCCc2c[nH]c3ccccc23)nnc1-c1ccc2ccccc2n1 value=-35.4
molecule=CS(=O)(=O)Nc1cncc(-c2ccc3ncnc(NCc4ccccc4)c3c2)c1 value=-26
molecule=Nc1nn2c(-c3cc4cc(Br)ccc4oc3=O)ccnc2c1N=Nc1ccc(S(N)(=O)=O)cc1 value=89.9
molecule="OC1CCC(Cn2c(C(F)(F)F)cc3c(Cl)ncnc32)CC1 (centres undefined)" value=-43.5
molecule=Cc1ccc(C(=O)Nc2ccc(-n3ccnc3)c(C(F)(F)F)c2)cc1C#Cc1cnc2cccnn12 value=-32.5
molecule=CN1CCN(C(=O)Oc2cc3c(c4ccccc24)[C@H](CCl)CN3C(=O)c2cc3cc(OCCCN4CCC4)ccc3[nH]2)[C@@H]2CSSC[C@H]21 value=-9.2
molecule="CCOC(=O)/C(F)=C/C1CC1CCc1ccc(OCC)cc1 (centres undefined)" value=98.4
molecule=COc1ccc2[nH]c(O)c(N=Nc3nc(-c4ccc(C#N)cc4)cs3)c2c1 value=84.2
molecule=O=C1Nc2cc(-c3ccc(NS(=O)(=O)c4ccc(F)c(Cl)c4)cc3)ccc2/C1=C/c1ccc[nH]1 value=11.7
molecule=C/C(=N\Nc1ccc(C(=O)O)cc1)c1cnn(-c2cc(=O)[nH]c3ccc(C)cc23)c1C value=97.8
molecule=O=C1NC(=S)/C(=C/c2cn(-c3ccccc3)nc2-c2ccccc2)S1 value=33.5
molecule="COc1cc(C2CC(c3cc(OC)c(OC)c(OC)c3)=Nc3c(N)nc(N)nc3N2)ccc1Oc1nc(Nc2ccc(F)cc2)nc(N(C)C)n1 (centres undefined)" value=6.97
molecule=CCc1ccccc1NC(=O)N/C(N)=N/c1nc2ccccc2s1 value=6.27
